Reported % viability in DMSO by item:
- System: NCI-H596
- METHOD: % viability in DMSO, miRNA mimic relative to NTC in DMSO; higher = less cytotoxic
- PROTOCOL_CONDITIONS: drug used in drug arm: paclitaxel 6 uM; treatment: DMSO

[
  {
    "SEQUENCE_RECORD": "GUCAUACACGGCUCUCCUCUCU",
    "% viability in DMSO / %": 9.78
  },
  {
    "SEQUENCE_RECORD": "AAAAGUAAUUGCGGAUUUUGCC",
    "% viability in DMSO / %": 95.4
  },
  {
    "SEQUENCE_RECORD": "ACAGUAGAGGGAGGAAUCGCAG",
    "% viability in DMSO / %": 65.6
  },
  {
    "SEQUENCE_RECORD": "UGUCAGUUUGUCAAAUACCCCA",
    "% viability in DMSO / %": 22.8
  },
  {
    "SEQUENCE_RECORD": "CAAUGUUUCCACAGUGCAUCAC",
    "% viability in DMSO / %": 15.2
  },
  {
    "SEQUENCE_RECORD": "AAAAGUACUUGCGGAUUUUGCU",
    "% viability in DMSO / %": 89.1
  },
  {
    "SEQUENCE_RECORD": "GAAUGUUGCUCGGUGAACCCCU",
    "% viability in DMSO / %": 7.07
  },
  {
    "SEQUENCE_RECORD": "GAGCCAGUUGGACAGGAGC",
    "% viability in DMSO / %": 66.9
  }
]
